- Target Or Test System: Ba/F3 cells bearing a KRAS G12C mutation (Homo sapiens, UniProt P01116, G12C, cells depend on it)
- Sequence (P01116 whole entry G12C): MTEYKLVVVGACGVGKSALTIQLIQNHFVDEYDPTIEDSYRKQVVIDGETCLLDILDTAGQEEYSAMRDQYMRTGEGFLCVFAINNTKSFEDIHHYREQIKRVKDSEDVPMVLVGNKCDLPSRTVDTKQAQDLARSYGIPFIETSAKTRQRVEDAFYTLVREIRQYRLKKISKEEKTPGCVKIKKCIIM
- Protocol Details: Ba/F3 cell model proliferation assay (AlamarBlue, 72 h)
- Assay type: cell-based
- Measurement Conditions: Ba/F3 KRAS G12C cells, 72 h, 10% FCS, uncorrected; read-out: IC50 Ba/F3 KRASG12C
Listing: GI50 of selected molecules
Assay Endpoint: GI50 (nM)

{"columns": ["Molecule", "Observed Result"],
 "data": [
  ["COC/C=C/C(=O)N1CCN(c2cc(O[C@@H](C)[C@@H]3CCCN3C)nc(-c3cc([C@@]4(C)CCCc5sc(N)c(C#N)c54)on3)n2)CC12CC2 [Ib-16]", 124],
  ["COC/C=C/C(=O)N1CCN(c2cc(O[C@@H](C)[C@@H]3CCCN3C)nc(-c3cc(C4(C)CCCc5sc(N)c(C#N)c54)on3)n2)CC1 (stereo partly drawn) [Ib-15]", 72.4],
  ["C=CC(=O)N1CCN(c2cc(O[C@@H](C)[C@@H]3CCCN3C)nc(-c3cc([C@@]4(C)CCCc5sc(N)c(C#N)c54)sn3)n2)CC1 [Id-1]", 0.4],
  ["C=CC(=O)N1[C@@H](C)CN(c2cc(O[C@@H](C)[C@@H]3CCCN3C)nc(-c3cc([C@@]4(C)CCCc5sc(N)c(C#N)c54)on3)n2)C[C@@H]1C [Ib-4]", 1.7],
  ["C=CC(=O)N1CCC(Oc2cc(O[C@@H](C)[C@@H]3CCCN3C)nc(-c3cc([C@@]4(C)CCCc5sc(N)c(C#N)c54)sn3)n2)CC1 [Id-6]", 0.2],
  ["C=C(F)C(=O)N1CCN(c2cc(O[C@@H](C)[C@@H]3CCCN3C)nc(-c3cc(C4(C)CCCc5sc(N)c(C#N)c54)sn3)n2)CC1 (stereo partly drawn) [Id-7]", 5.4],
  ["C=CC(=O)N1[C@H](C)CN(c2cc(O[C@@H](C)[C@@H]3CCCN3C)nc(-c3cc([C@@]4(C)CCCc5sc(N)c(C#N)c54)sn3)n2)C[C@@H]1C [Id-2]", 2],
  ["C=CC(=O)N1[C@@H](C)CN(c2nc(-c3cc([C@@]4(C)CCCc5sc(N)c(C#N)c54)on3)nc(O[C@@H](C)[C@@H]3CCCN3C)c2Cl)C[C@@H]1C [Ib-9]", 2.9],
  ["C=CC(=O)N1CCN(c2cc(O[C@@H](C)[C@@H]3CCCN3C)nc(-c3cc([C@@]4(C)CCCc5sc(N)c(C#N)c54)on3)n2)[C@H](C)C1 [Ib-1]", 1.8]
]}

###

- Target Or Test System: Ba/F3 cells bearing a KRAS G12C mutation (Homo sapiens, UniProt P01116, G12C, cells depend on it)
- Protocol Details: Ba/F3 cell model proliferation assay (AlamarBlue, 72 h)
- Type: cell-based
- Measurement Conditions: Ba/F3 KRAS G12C cells, 72 h, 10% FCS, uncorrected; read-out: IC50 Ba/F3 KRASG12C
Assay Endpoint: GI50 (nM)

{"columns": ["Compound", "Assay Endpoint", "Observed Result"],
 "data": [
  ["C=CC(=O)N1CCC(Oc2cc(N3CCN(C)C[C@@H]3C)nc(-c3cc(C4(C)CCCc5sc(N)c(C#N)c54)on3)n2)CC1 (stereo partly drawn)", "GI50", 13.5],
  ["C=C(F)C(=O)N1[C@@H](C)CN(c2cc(O[C@@H](C)[C@@H]3CCCN3C)nc(-c3cc([C@@]4(C)CCCc5sc(N)c(C#N)c54)no3)n2)C[C@@H]1C", "GI50", 35.6],
  ["C=CC(=O)N1CCN(c2cc(O[C@@H](C)[C@@H]3CCCN3C)nc(-c3cc([C@@]4(C)CCCc5sc(N)c(C#N)c54)on3)n2)CC12CC2", "GI50", 3.8]
]}
